tested-system: NRAS G12C (Homo sapiens, UniProt P01111+P62937, G12C)
Sequence (P01111 whole entry G12C): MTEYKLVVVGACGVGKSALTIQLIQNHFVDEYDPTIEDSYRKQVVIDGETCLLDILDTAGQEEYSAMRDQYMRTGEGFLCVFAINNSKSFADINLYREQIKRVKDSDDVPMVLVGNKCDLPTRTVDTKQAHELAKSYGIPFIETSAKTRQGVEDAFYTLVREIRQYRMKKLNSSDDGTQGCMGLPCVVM
Sequence (P62937 whole entry): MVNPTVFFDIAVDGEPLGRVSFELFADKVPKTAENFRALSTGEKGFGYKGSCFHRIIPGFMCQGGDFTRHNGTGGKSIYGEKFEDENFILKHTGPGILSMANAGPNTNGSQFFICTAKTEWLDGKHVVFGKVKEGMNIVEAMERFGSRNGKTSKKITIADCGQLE
protocol-description: Ras-Raf disruption / FRET / MOA assay (BRAF RBD)
Assay type: biochemical
settings: NRAS G12C; read-out: NRAS G12C FRET data IC50
metric-name: IC50

**Q:** I'd like to know its IC50. The molecule in question is CCn1c(-c2cccnc2[C@H](C)OC)c2c3cc(ccc31)-c1cccc(c1)C[C@H](NC(=O)[C@H](C(C)C)N(C)C(=O)[C@H]1CC[C@H](N=C=NCc3ccccc3OC)C1)C(=O)N1CCC[C@H](N1)C(=O)OCC(C)(C)C2 [Example 76]
**A:** 100 to 1000 nM

**Q:** I'd like to know its IC50. The molecule in question is CCn1c(-c2cccnc2[C@H](C)OC)c2c3cc(ccc31)-c1cc(O)cc(c1)C[C@H](NC(=O)[C@H](C(C)C)N(C)C(=O)N1CCCN(C(=O)[C@@H]3CN3)CC1)C(=O)N1CCC[C@H](N1)C(=O)OCC(C)(C)C2 [Example 173]
**A:** 10 to 100 nM

**Q:** I'd like to know its IC50. The molecule in question is CCn1c(-c2cccnc2[C@H](C)OC)c2c3cc(ccc31)-c1cc(O)cc(c1)C[C@H](NC(=O)[C@H](C(C)C)N(C)C(=O)N1CC(NC(=O)[C@@H]3CN3)C1)C(=O)N1CCC[C@H](N1)C(=O)OCC(C)(C)C2 (atropisomer, axis not shown) [Example 188]
**A:** 10 to 100 nM

**Q:** I'd like to know its IC50. The molecule in question is CCn1c(-c2cccnc2[C@H](C)OC)c2c3cc(ccc31)-c1cc(O)cc(c1)C[C@H](NC(=O)[C@H](C(C)C)N(C)C(=O)C1CCN(C(=O)[C@H]3CN3)CC1)C(=O)N1CCC[C@H](N1)C(=O)OCC(C)(C)C2 [Example 86]
**A:** < 10 nM

**Q:** I'd like to know its IC50. The molecule in question is CCn1c(-c2cccnc2[C@H](C)OC)c2c3cc(ccc31)-c1cc(O)cc(c1)C[C@H](NC(=O)[C@H](C(C)C)N(C)C(=O)[C@H]1CCCN(C(=O)[C@@H]3CN3)C1)C(=O)N1CCC[C@H](N1)C(=O)OCC(C)(C)C2 [Example 236]
**A:** 10 to 100 nM

**Q:** I'd like to know its IC50. The molecule in question is CCn1c(-c2cccnc2[C@H](C)OC)c2c3cc(ccc31)-c1csc(n1)C[C@H](NC(=O)[C@H](C(C)C)N(C)C(=O)N1CC[C@@H](N(C)C(=O)[C@@H]3CN3)C1)C(=O)N1CCC[C@H](N1)C(=O)OCC(C)(C)C2 (atropisomer, axis not shown) [Example 227]
**A:** 10 to 100 nM

**Q:** I'd like to know its IC50. The molecule in question is CCn1c(-c2cccnc2[C@H](C)OC)c2c3cc(ccc31)-c1cc(O)cc(c1)C[C@H](NC(=O)[C@H](C(C)C)N(C)C(=O)[C@H]1CCN(C(=O)[C@H]3CN3)[C@H]1C)C(=O)N1CCC[C@H](N1)C(=O)OCC(C)(C)C2 (atropisomer, axis not shown) [Example 206]
**A:** 10 to 100 nM

**Q:** I'd like to know its IC50. The molecule in question is CCn1c(-c2cccnc2[C@H](C)OC)c2c3cc(ccc31)-c1csc(n1)C[C@H](NC(=O)[C@H](C(C)C)N(C)C(=O)N1CC[C@H]1CN(C)C(=O)[C@@H]1CN1)C(=O)N1CCC[C@H](N1)C(=O)OCC(C)(C)C2 [Example 235]
**A:** 100 to 1000 nM
